Where these numbers come from: ChEMBL document CHEMBL3351840

Tested on: Staphylococcus epidermidis
Experiment: Antibacterial activity against Staphylococcus epidermidis ATCC 12228 after 18 hrs by microdilution method
Format: functional
Details: ATCC 12228, 18 h
Measured attribute: MIC (µg/mL)

C=C(C)[C@H](O)CC[C@@H](COC(C)=O)[C@H]1CC[C@@]2(C)[C@@H]3CC[C@@H](C(=C)C)[C@@]4(CCC(=O)O)C[C@@]34CC[C@]12C; 25

P. C=C(C)[C@@H]1CC[C@@H]2[C@]3(CC[C@]4(C)[C@@H]([C@H]5CC[C@H](C(C)(C)O)OC5)CC[C@@]24C)C[C@]13CCC(=O)O
Q. C=C(C)[C@H](O)CC[C@@H](CO)[C@H]1CC[C@@]2(C)[C@@H]3CC[C@@H](C(=C)C)[C@@]4(CCC(=O)O)C[C@@]34CC[C@]12C
API: POST /compare with P and Q ; response names the item with higher MIC. Answer = label.
Q
(Q: 25 µg/mL, P: 12.5 µg/mL)

###

System: Staphylococcus epidermidis
Experiment: Antibacterial activity against Staphylococcus epidermidis ATCC 12228 after 18 hrs by microdilution method
Type: functional
Details: ATCC 12228, 18 h
Let's look at some molecules and their measured MIC.

C=C(C)[C@@H]1CC[C@@H]2[C@]3(CC[C@]4(C)[C@@H]([C@H](C)C/C=C/C(C)(C)O)CC[C@@]24C)C[C@]13CCC(=O)O; > 50 µg/mL

Can you look up the measured MIC of C=C(C)[C@@H]1CC[C@@H]2[C@]3(CC[C@]4(C)[C@@H]([C@H](C)CC[C@H](O)C(C)(C)O)CC[C@@]24C)C[C@]13CCC(=O)O for me?
> 50 µg/mL

Can you look up the measured MIC of C=C(C)[C@@H]1CC[C@@H]2[C@]3(CC[C@]4(C)[C@@H]([C@@H](C/C=C/C(C)(C)O)COC(C)=O)CC[C@@]24C)C[C@]13CCC(=O)O for me?
12.5 µg/mL

Can you look up the measured MIC of C=C(C)C(=O)CC[C@@H](COC(C)=O)[C@H]1CC[C@@]2(C)[C@@H]3CC[C@@H](C(=C)C)[C@@]4(CCC(=O)O)C[C@@]34CC[C@]12C for me?
> 50 µg/mL
